The reported measurements were obtained from paper PMC5011342.

Examples of compounds with documented viability at 1 µM follow.
# System: expanded OPCs
# assay: cells
# measurementConditions: Rattus norvegicus, 72 h, read-out: 1 µM (% DMSO), alamarBlue viability of expanded OPCs, compound at 1 µM, sheet All Tox data
readout: viability at 1 µM (%)

[
  {
    "compound": "CCc1nn(CCCN2CCN(c3cccc(Cl)c3)CC2)c(=O)n1CCOc1ccccc1 [Nefazodone]",
    "measuredOn": "expanded OPCs",
    "readout": "viability at 1 µM",
    "numericResult": 111
  },
  {
    "compound": "CN(C)CCOC(c1ccccc1)c1ccccc1 [Diphenhydramine]",
    "measuredOn": "expanded OPCs",
    "readout": "viability at 1 µM",
    "numericResult": 80
  },
  {
    "compound": "CCOC(=O)[C@@]1(CCCCCCOc2ccc(Cl)cc2)CO1 [Etomoxir]",
    "measuredOn": "expanded OPCs",
    "readout": "viability at 1 µM",
    "numericResult": 92.3
  },
  {
    "compound": "O=c1c(O[C@@H]2O[C@H](CO)[C@H](O)[C@H](O)[C@H]2O)c(-c2ccc(O)c(O)c2)oc2cc(O)cc(O)c12 [Hyperoside]",
    "measuredOn": "expanded OPCs",
    "readout": "viability at 1 µM",
    "numericResult": 29.8
  },
  {
    "compound": "O=C(O)/C=C/c1ccc(Cn2ccnc2)cc1 [Ozagrel]",
    "measuredOn": "expanded OPCs",
    "readout": "viability at 1 µM",
    "numericResult": 85.9
  }
]
